Measured IC50 of individual entries
# Experimental system: ROCK2 (Homo sapiens, UniProt O75116)
# Sequence (O75116 whole entry): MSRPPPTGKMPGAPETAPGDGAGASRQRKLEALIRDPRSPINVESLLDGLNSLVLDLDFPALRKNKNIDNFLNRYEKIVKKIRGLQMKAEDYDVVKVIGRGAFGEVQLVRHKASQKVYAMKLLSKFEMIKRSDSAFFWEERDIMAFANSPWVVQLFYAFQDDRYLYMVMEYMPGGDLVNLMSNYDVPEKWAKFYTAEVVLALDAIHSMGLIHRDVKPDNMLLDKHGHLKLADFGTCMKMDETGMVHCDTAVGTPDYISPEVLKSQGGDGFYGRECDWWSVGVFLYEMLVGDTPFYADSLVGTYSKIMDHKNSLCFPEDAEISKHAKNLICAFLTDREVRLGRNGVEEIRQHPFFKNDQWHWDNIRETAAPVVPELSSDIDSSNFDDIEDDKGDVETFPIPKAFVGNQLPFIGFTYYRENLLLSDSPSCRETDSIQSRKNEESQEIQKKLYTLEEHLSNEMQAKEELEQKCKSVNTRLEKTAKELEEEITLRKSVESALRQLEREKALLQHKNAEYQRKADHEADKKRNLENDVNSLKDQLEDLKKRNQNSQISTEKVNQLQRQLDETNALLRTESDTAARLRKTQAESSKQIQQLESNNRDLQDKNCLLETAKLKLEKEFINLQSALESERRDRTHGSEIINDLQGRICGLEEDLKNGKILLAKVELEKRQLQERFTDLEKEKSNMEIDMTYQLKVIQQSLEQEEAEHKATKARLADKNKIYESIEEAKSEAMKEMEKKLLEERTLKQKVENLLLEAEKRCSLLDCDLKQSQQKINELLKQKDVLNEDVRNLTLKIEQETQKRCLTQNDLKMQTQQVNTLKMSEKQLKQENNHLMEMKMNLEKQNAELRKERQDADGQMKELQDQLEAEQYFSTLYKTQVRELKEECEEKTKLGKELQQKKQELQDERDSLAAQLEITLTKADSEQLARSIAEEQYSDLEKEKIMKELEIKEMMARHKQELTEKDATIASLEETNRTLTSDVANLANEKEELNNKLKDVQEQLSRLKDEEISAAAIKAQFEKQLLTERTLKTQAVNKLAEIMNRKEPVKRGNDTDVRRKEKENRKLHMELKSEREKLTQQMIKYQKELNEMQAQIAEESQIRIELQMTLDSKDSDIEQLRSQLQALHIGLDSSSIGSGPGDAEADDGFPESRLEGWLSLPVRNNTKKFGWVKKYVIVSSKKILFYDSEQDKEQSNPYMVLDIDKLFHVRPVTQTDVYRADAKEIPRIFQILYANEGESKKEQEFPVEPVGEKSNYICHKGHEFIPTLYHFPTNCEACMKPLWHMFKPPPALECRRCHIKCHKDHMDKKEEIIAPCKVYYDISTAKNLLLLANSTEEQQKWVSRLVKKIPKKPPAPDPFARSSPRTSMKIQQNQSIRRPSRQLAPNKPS
# Assay info: Reaction Biology kinase activity inhibition
# Format: biochemical
# Design: purchased Reaction Biology (Malvern, PA)
# Experimental parameters: Reaction Biology, Inc, Table 1; read-out: ROCK2 IC50
# value in µM; strip the unit string

CC1(C)Oc2cc3oc(=O)ccc3cc2C[C@@H]1O [DOH, decursinol]    85

Attention now shifts to the item below.
Incoming: Find the recorded IC50 belonging to C/C=C(/C)C(=O)O[C@H]1Cc2cc3ccc(=O)oc3cc2OC1(C)C [DA, decursinol angelate] and report it.
Outgoing: 23

* * *

# Experimental system: CDK9 (Homo sapiens, UniProt P50750)
# Sequence (P50750 whole entry): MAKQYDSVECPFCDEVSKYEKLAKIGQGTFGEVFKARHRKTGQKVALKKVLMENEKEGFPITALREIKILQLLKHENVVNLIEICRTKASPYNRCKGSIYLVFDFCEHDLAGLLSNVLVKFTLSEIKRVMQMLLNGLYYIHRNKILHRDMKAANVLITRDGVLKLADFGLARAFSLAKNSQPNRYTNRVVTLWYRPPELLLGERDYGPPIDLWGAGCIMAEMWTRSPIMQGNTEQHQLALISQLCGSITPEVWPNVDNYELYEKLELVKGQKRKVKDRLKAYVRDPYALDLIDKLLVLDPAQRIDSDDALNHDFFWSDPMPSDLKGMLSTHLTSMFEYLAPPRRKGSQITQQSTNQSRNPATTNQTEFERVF
# Assay info: KINOMEscan competition binding
# Design: purchased Eurofins DiscoverX (KINOMEscan)
# Experimental parameters: validation Kd titration, 0.003 to 50 µM
pKd: −log10 of the molar value.
Observed property: pKd

Incoming: Find the recorded pKd belonging to `CC1(C)Oc2cc3oc(=O)ccc3cc2C[C@@H]1O` and report it.
Outgoing: < 4.30

* * *

# Experimental system: LKB1 (STK11) (Homo sapiens, UniProt Q15831)
# Sequence (Q15831 whole entry): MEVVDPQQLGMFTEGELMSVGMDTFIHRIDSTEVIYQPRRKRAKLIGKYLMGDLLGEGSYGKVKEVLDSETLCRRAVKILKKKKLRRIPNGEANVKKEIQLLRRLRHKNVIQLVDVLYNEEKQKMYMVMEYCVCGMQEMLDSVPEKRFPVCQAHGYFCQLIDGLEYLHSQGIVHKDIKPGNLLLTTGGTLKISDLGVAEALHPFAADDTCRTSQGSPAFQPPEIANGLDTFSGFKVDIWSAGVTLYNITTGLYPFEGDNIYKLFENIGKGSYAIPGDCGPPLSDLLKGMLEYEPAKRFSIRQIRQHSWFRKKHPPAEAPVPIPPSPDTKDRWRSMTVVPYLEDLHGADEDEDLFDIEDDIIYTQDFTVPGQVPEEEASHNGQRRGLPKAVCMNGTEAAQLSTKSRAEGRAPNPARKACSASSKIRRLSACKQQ
pKd: −log10 of the molar value.
Observed property: pKd

Incoming: Find the recorded pKd belonging to `CC1(C)Oc2cc3oc(=O)ccc3cc2C[C@@H]1O` and report it.
Outgoing: < 4.30

* * *

# Experimental system: UniProt:P21127
# Sequence (P21127 whole entry): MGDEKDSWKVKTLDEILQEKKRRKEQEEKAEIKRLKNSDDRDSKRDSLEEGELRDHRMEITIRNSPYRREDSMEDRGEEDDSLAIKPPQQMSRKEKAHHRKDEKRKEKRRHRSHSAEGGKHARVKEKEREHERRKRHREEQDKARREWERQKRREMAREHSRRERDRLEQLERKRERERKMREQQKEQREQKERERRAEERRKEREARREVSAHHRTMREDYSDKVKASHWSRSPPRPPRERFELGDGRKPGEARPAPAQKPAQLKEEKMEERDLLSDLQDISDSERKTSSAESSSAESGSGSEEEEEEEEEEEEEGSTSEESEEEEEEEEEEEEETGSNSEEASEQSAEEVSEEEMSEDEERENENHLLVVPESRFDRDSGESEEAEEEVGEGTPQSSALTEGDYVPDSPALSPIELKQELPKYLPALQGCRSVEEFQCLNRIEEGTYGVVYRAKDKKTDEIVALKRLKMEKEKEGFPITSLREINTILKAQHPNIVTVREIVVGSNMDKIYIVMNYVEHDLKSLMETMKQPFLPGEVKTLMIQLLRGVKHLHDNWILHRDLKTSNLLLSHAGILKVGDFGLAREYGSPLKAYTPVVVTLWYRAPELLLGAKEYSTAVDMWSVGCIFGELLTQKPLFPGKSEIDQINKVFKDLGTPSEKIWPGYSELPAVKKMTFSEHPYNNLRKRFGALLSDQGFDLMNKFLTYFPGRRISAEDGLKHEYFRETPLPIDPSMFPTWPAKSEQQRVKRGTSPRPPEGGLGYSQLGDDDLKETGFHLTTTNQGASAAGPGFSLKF
pKd: −log10 of the molar value.
Observed property: pKd

Incoming: For UniProt:P21127, provide pKd of CC1(C)Oc2cc3oc(=O)ccc3cc2C[C@@H]1O [DOH, decursinol] please.
Outgoing: < 4.30

* * *

# Experimental system: PDK2/PDHK2 (Homo sapiens)
# Assay info: Reaction Biology kinase activity inhibition
# Experimental parameters: validation titration, 6.25 to 100 µM, Hotspot confirmation
pIC50: −log10 of the molar value.
Observed property: pIC50

C/C=C(/C)C(=O)O[C@H]1Cc2cc3ccc(=O)oc3cc2OC1(C)C [DA, decursinol angelate]    < 4.00

Attention now shifts to the item below.
Incoming: Find the recorded pIC50 belonging to `CC1(C)Oc2cc3oc(=O)ccc3cc2C[C@@H]1O` and report it.
Outgoing: < 4.00
